System Tested: Tyrosine-protein kinase Yes (Homo sapiens, UniProt P07947)
Sequence (P07947 whole entry): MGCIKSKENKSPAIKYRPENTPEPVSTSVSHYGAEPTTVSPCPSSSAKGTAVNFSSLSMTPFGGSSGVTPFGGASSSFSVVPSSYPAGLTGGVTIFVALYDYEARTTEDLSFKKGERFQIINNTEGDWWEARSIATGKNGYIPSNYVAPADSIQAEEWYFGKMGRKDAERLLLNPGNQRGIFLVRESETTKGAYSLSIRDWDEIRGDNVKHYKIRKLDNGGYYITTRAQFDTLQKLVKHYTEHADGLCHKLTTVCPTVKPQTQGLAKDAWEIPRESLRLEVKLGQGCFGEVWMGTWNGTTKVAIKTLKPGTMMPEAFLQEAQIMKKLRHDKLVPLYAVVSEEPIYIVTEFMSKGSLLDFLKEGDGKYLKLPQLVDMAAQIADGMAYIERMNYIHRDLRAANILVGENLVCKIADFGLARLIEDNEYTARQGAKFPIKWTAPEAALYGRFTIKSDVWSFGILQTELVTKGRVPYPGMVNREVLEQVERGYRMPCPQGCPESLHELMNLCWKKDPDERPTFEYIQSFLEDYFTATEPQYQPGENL
pIC50: −log10 of the molar value.
Quantity Kind: pIC50

| Smiles Notation | Quantity Kind | Assay Result |
| --- | --- | --- |
| Cc1cc(-c2cc(OC(=O)c3ccccc3)ccc2Cl)cc2nnc(Nc3ccc(OCCN4CCCC4)cc3)nc12 | pIC50 | ≤ 5.60 |

---

Species: Mus musculus
Experiment: Cmax in C57BL/6 mouse retina assessed as 4-chloro-3-{5-methyl-3-[4-(2-pyrrolidin-1-yl-ethoxy)phenylamino]benzo[1,2,4]triazin-7-yl}phenol at 172 nM instilled per eye
Assay type: ADME, organism-based
Parameters: dose 172 nM, route ophthalmic
Condition Info: in vivo, topical_or_ocular, 0.172 µM

| Smiles Notation | Units Text | Cmax |
| --- | --- | --- |
| Cc1cc(-c2cc(OC(=O)c3ccccc3)ccc2Cl)cc2nnc(Nc3ccc(OCCN4CCCC4)cc3)nc12 | nM | 2400 |

---

Species on record: Mus musculus
Experiment: Cmax in C57BL/6 mouse cornea assessed as 4-chloro-3-{5-methyl-3-[4-(2-pyrrolidin-1-yl-ethoxy)phenylamino]benzo[1,2,4]triazin-7-yl}phenol at 172 nM instilled per eye
Assay type: ADME, organism-based
Design: dose 172 nM, route ophthalmic
Condition Info: in vivo, topical_or_ocular, 0.172 µM

| Smiles Notation | Cmax / µM |
| --- | --- |
| Cc1cc(-c2cc(OC(=O)c3ccccc3)ccc2Cl)cc2nnc(Nc3ccc(OCCN4CCCC4)cc3)nc12 | 33 |

---

Experiment: AUC (0 to 24 hrs) in C57BL/6 mouse choroid/sclera at 137 nM instilled per eye
Type: ADME, organism-based
Parameters: time < 24 hr, dose 137 nM, route ophthalmic
Condition Info: topical or ocular, 137 nM per eye

| Smiles Notation | AUC(0-t) at 24 h, 0.137 µM |
| --- | --- |
| Cc1cc(-c2cc(O)ccc2Cl)cc2nnc(Nc3ccc(OCCN4CCCC4)cc3)nc12 | 240 µg·h/mL |

---

Experiment: AUC (0 to 24 hrs) in C57BL/6 mouse cornea at 172 nM instilled per eye
Format: ADME, organism-based
Parameters: time < 24 hr, dose 172 nM, route ophthalmic
Condition Info: topical or ocular, 172 nM per eye

| Smiles Notation | Units Text | AUC(0-t) at 24 h, 0.172 µM |
| --- | --- | --- |
| Cc1cc(-c2cc(OC(=O)c3ccccc3)ccc2Cl)cc2nnc(Nc3ccc(OCCN4CCCC4)cc3)nc12 | ng·h/mL | 55000 |

---

Experiment: Cmax in C57BL/6 mouse plasma at 137 nM instilled per eye
Assay type: ADME, organism-based
Parameters: dose 137 nM, route ophthalmic
Condition Info: topical or ocular, 137 nM per eye

| Smiles Notation | Cmax at 0.137 µM, nM |
| --- | --- |
| Cc1cc(-c2cc(O)ccc2Cl)cc2nnc(Nc3ccc(OCCN4CCCC4)cc3)nc12 | 2 |

---

System Tested: Vascular endothelial growth factor receptor 2 (Homo sapiens, UniProt P35968)
Sequence (P35968 whole entry): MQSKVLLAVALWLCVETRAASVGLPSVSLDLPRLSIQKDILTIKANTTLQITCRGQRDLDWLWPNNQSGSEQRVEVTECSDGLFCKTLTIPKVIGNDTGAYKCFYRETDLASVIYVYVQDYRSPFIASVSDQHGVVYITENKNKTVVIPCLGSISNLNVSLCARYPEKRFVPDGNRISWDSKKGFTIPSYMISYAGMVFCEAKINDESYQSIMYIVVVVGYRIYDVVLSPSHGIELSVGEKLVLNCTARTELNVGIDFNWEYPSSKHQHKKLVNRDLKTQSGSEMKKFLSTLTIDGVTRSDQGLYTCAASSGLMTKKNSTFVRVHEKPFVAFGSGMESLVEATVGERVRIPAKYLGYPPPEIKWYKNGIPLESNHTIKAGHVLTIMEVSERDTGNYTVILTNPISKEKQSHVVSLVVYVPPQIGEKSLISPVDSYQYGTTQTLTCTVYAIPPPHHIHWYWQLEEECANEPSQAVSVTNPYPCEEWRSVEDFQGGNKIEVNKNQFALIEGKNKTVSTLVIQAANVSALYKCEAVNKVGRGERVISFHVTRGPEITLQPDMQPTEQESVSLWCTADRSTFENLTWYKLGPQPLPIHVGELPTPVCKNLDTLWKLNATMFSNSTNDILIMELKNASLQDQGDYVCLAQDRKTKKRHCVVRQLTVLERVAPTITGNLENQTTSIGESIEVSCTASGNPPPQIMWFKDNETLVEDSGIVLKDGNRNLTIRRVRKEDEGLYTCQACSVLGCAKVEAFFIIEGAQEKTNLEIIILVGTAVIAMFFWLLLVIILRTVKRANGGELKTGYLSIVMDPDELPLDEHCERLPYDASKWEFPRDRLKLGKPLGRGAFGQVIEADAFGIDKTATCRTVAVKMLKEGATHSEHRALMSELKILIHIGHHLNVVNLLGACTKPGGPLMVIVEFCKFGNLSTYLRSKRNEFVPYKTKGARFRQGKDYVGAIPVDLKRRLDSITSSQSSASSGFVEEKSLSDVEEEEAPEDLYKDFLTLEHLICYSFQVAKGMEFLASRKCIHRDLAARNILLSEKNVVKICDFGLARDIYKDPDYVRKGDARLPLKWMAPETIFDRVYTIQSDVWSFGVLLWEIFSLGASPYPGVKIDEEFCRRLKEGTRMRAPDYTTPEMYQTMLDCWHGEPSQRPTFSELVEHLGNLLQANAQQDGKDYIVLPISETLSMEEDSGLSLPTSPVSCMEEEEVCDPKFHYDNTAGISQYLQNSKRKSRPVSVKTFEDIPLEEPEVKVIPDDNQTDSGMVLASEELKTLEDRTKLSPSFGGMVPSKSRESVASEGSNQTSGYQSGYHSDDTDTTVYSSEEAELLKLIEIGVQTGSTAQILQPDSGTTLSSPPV
pIC50: −log10 of the molar value.

| Compound | System Tested | Inequality Sign | pIC50 |
| --- | --- | --- | --- |
| Cc1cc(-c2cc(O)ccc2Cl)cc2nnc(Nc3ccc(CCCN4CCCC4)cc3)nc12 | Vascular endothelial growth factor receptor 2 (Homo sapiens, UniProt P35968) | = | 8.57 |
| Cc1cc(-c2cc(OC(=O)c3ccccc3)ccc2Cl)cc2nnc(Nc3ccc(OCCN4CCCC4)cc3)nc12 [TG100-801] | Vascular endothelial growth factor receptor 2 (Homo sapiens, UniProt P35968) | ≤ | 5.00 |
| Cc1cc(-c2cc(O)ccc2Cl)cc2nnc(Nc3ccc(S(=O)(=O)NCCN4CCCC4)cc3)nc12 | Vascular endothelial growth factor receptor 2 (Homo sapiens, UniProt P35968) | = | 8.33 |
| Cc1cc(-c2cc(O)ccc2Cl)cc2nnc(Nc3ccc(S(=O)(=O)C4CCNCC4)cc3)nc12 | Vascular endothelial growth factor receptor 2 (Homo sapiens, UniProt P35968) | = | 8.77 |
